Target: human orexin 1 receptor (Homo sapiens (Human), UniProt O43613)
Sequence (O43613 whole entry): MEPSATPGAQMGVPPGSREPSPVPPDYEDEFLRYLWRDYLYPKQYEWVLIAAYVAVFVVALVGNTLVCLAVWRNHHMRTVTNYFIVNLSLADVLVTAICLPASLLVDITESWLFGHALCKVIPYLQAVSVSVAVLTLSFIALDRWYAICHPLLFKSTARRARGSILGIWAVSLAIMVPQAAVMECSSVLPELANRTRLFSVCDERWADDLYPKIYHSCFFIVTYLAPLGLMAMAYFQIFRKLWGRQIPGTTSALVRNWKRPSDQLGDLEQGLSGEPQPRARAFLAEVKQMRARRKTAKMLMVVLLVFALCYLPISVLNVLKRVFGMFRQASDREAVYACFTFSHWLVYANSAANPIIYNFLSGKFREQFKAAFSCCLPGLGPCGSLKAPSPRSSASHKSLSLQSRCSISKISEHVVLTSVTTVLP
Assay: Human orexin 1 receptor radioligand binding (competitive, [3H]-SB674042, CHO cell preparations)
Settings: human orexin 1 receptor, [3H]-SB674042 competition binding; read-out: hOX1 Ki (nm)
Task for the reader: assign each of the following molecules its reported pKi.
One number for each entry, as −log10 of the molar value.

Solved cases below.
MOLECULE: O=C(c1ccccc1-n1cccn1)N1C2CCC1C(COc1ccc(F)cn1)C2 (racemic)
NUMERIC RESULT: 6.93

MOLECULE: Cc1cccc(OCC2CC3CCC2N3C(=O)c2ccc(C)nc2-n2nccn2)n1 (racemic)
NUMERIC RESULT: 5.36

MOLECULE: O=C(c1ccc(F)cc1-n1nccn1)N1[C@@H]2CC[C@H]1[C@H](Nc1cnc(C(F)(F)F)cn1)C2
NUMERIC RESULT: 6.99

Task: For the molecule shown here, O=C(c1cccc(F)c1-n1nccn1)N1[C@@H]2CC[C@H]1[C@H](Nc1ncc(C(F)(F)F)cn1)C2 , give the reported pKi.
Result: 6.95

Where these numbers come from: patent US9062078B2
